Data origin, for the record: the NIST ThermoML archive (doi:10.1021/acs.jced.6b00269)

# CONDITION NOTES: 288.15 K; 101.33 kPa; Liquid; Vibrating tube method
Overview of recorded mass density for various compounds

- COMPOUND: "CC(=O)[O-].CCCCCCCCCCCCCC[P+](CCCCCC)(CCCCCC)CCCCCC [trihexyl(tetradecyl)phosphonium acetate]"
  UNITS LABEL: "kg/m3"
  mass density: 891.9
- COMPOUND: "CCCC[S+]1CCCC1.O=S(=O)([N-]S(=O)(=O)C(F)(F)F)C(F)(F)F"
  UNITS LABEL: "kg/m3"
  mass density: 1464.3
- COMPOUND: "CCCCCCCC[P+](CC)(CC)CC.O=[N+]([O-])c1c[n-]cn1 [triethyloctylphosphonium 4-nitroimidazolide]"
  UNITS LABEL: "kg/m3"
  mass density: 1034.8
- COMPOUND: "CCCCCCCCCCCCCC[P+](CCCCCC)(CCCCCC)CCCCCC.Cc1ncc([N+](=O)[O-])[n-]1 [trihexyl(tetradecyl)phosphonium 2-methyl-5-nitroimidazolide]"
  UNITS LABEL: "kg/m3"
  mass density: 945.1

###

# CONDITION NOTES: 323.15 K; 101.33 kPa; Liquid; Vibrating tube method

- COMPOUND: "CCCCCCSC(N(C)C)=[N+](C)C.O=S(=O)([N-]S(=O)(=O)C(F)(F)F)C(F)(F)F"
  UNITS LABEL: "kg/m3"
  mass density: 1317.1
- COMPOUND: "CCCC[P+](CC)(CC)CC.O=[N+]([O-])c1cn[n-]c1 [butyltriethylphosphonium 4-nitropyrazolide]"
  UNITS LABEL: "kg/m3"
  mass density: 1063.3
- COMPOUND: "CCCCCCCC[P+](CC)(CC)CC.O=[N+]([O-])c1cn[n-]c1 [triethyloctylphosphonium 4-nitropyrazolide]"
  UNITS LABEL: "kg/m3"
  mass density: 1016.1
- COMPOUND: "CCCCCCn1cc[n+](C)c1.N#Cc1ccc[n-]1 [1-hexyl-3-methylimidazolium 2-cyanopyrrolide]"
  UNITS LABEL: "kg/m3"
  mass density: 1006.9
- COMPOUND: "CCCCCC[n+]1ccn(C)c1.O=S(=O)([N-]S(=O)(=O)C(F)(F)F)C(F)(F)F"
  UNITS LABEL: "kg/m3"
  mass density: 1350.3
- COMPOUND: "CCC=Cn1cc[n+](C)c1C.O=[N+]([O-])c1cn[n-]c1 [1-but-1-enyl-2,3-dimethylimidazolium 4-nitropyrazolide]"
  UNITS LABEL: "kg/m3"
  mass density: 1164.4
- COMPOUND: "CCCC[n+]1cccn1C.O=S(=O)([N-]S(=O)(=O)C(F)(F)F)C(F)(F)F [1-butyl-2-methylpyrazolium bis(trifluoromethylsulfonyl)imide]"
  UNITS LABEL: "kg/m3"
  mass density: 1427.7
- COMPOUND: "CCCC[P+](CC)(CC)CC.Cc1ncc([N+](=O)[O-])[n-]1 [butyltriethylphosphonium 2-methyl-5-nitroimidazolide]"
  UNITS LABEL: "kg/m3"
  mass density: 1050.7
- COMPOUND: "CCCCCCCCSC(N(C)C)=[N+](C)C.O=S(=O)([N-]S(=O)(=O)C(F)(F)F)C(F)(F)F"
  UNITS LABEL: "kg/m3"
  mass density: 1275.5
- COMPOUND: "CCCCCCCC[P+](CC)(CC)CC.Cc1ncc([N+](=O)[O-])[n-]1 [triethyloctylphosphonium 2-methyl-5-nitroimidazolide]"
  UNITS LABEL: "kg/m3"
  mass density: 1014.1
- COMPOUND: "CCCCCCCC[P+](CC)(CC)CC.O=S(=O)([N-]S(=O)(=O)C(F)(F)F)C(F)(F)F [triethyloctylphosphonium bis(trifluoromethylsulfonyl)imide]"
  UNITS LABEL: "kg/m3"
  mass density: 1224.2
